assay: NCI Yeast Anticancer Drug Screen. Data for the mec2-1 strain (AID 157); conditions: S. cerevisiae mec2-1 strain, at 50.0 µM, hits give high values
The panel holds about 79,000 compounds, 15% with a hit somewhere; the sample as a whole holds those more often. *1 amine or outer side, *2 acyl side, *3 side chain or, on linkers, in order; H or OH if unused. Where a SMILES comes first, the peptide text is derived from it. Bridges are numbered along the chain shown (N, C = ends). Roman numbers before positions name the chains, in order. [ ]: non-standard residue; d: D form. Actinocin(9to1) = Cc1c2oc3c(C)ccc(C(=O)[*:1])c3nc-2c(C(=O)[*:2])c(N)c1=O; X13 = O=C1CC(C(=O)[*:2])N([*:1])C1; NMeV = CN[CH](C(=O)O)C(C)C; Sar = CNCC(=O)O
quantity: growth inhibition (%)
// note: answer is a bare numeric in %

Example compounds with recorded growth inhibition:
>  <compound>
N#CCC(=O)Nc1ccccc1

>  <growth inhibition / %>
15.7

$$$$
>  <compound>
COc1ccc(-c2ccc(OC)cc2)cc1

>  <growth inhibition / %>
-2.75

$$$$
>  <compound>
Cc1c2oc3c(C)ccc(C(=O)NC4C(=O)NC(C(C)C)C(=O)N5CC(=O)CC5C(=O)N(C)CC(=O)N(C)C(C(C)C)C(=O)OC4C)c3nc-2c(C(=O)NC2C(=O)NC(C(C)C)C(=O)N3CC(=O)CC3C(=O)N(C)CC(=O)N(C)C(C(C)C)C(=O)OC2C)c(N)c1=O (stereo not drawn) (I: TV[X13][Sar][NMeV] / II: TV[X13][Sar][NMeV]; ester I:1-I:C, II:1-II:C; linker I:N-II:N via Actinocin(9to1); configuration not given here)

>  <growth inhibition / %>
-1.65

$$$$
>  <compound>
Nc1ccccc1NC(=O)C(F)(F)F

>  <growth inhibition / %>
-5.4

$$$$

GET /value?item= Cc1n[n+](CC(=O)c2ccccc2)c2sc(N)nn12 &field=growth inhibition returns -31.4

Value of growth inhibition reported for the compound N#CCCCCCCO is -20.6

O=C1NC(N2CCCC(CO)C2)=N/C1=C\c1ccc(Cl)cc1 (stereo not drawn) yielded growth inhibition of -10.9

# growth inhibition (compound: CCOC(=O)c1ccc(NC(=O)CNC2CCCCC2)cc1 ) is -8.7
